molecular target: A1PI (Homo sapiens, UniProt P01009); construct: Human plasma is currently the only approved source of therapeutic AlPI; test: A1PI binding on peptide-resin column, injection of 1 mg A1PI in equilibration buffer; conditions: 1 mg A1PI in equilibration buffer, 4° C.
Sequence (P01009 25-418): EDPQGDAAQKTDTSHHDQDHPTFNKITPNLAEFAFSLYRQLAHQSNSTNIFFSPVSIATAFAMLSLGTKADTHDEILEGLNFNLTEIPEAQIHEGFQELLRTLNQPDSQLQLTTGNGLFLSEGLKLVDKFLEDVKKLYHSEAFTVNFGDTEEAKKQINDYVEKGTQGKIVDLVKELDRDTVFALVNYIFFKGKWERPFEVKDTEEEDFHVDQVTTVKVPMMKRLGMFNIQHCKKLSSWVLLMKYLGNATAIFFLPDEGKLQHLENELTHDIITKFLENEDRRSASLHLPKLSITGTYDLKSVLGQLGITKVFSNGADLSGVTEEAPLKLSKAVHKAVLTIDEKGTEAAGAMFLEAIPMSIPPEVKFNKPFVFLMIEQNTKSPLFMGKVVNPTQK
Ends that are not written are not given here.
Consider the cut-off 90%. If the recorded Percent A1PI Eluted by Fraction Based on Absorbance at 280 nm, 1M NaCl is strictly smaller, the label is T; if not, the label is F.

> print(dat)
    substance  categorylabel
 1     WIKWTK              F
 2     ARWYIH              T
 3     NWKRVR              F
 4     LIVHRW              T
 5     PYWIVR              T
 6     RAFWYI              T
 7     RFIYYT              T
 8     WKLWRW              T
 9     IWRKYS              F
10     QYHFWY              T

====

Recorded Percent Eluted by Fraction, 2% Ac. Acid for the following substances
target: A1PI (Homo sapiens); construct: Human plasma is currently the only approved source of therapeutic AlPI; assay: A1PI purification from 5 mg hSA + 1 mg A1PI on peptide column, A1PI mass balance; type: binding; conditions: A1PI; 5 mg hSA + 1 mg A1PI, 20° C.; relative to total eluted
Ends that are not written are not given here.
metric: Percent Eluted by Fraction, 2% Ac. Acid (%)

> print(dat)
   substance                                   metric  datavalue
1     IIWLYK  Percent Eluted by Fraction, 2% Ac. Acid         58
2     PYWIVR  Percent Eluted by Fraction, 2% Ac. Acid         48
3     WKLWRW  Percent Eluted by Fraction, 2% Ac. Acid         52
4     RAFWYI  Percent Eluted by Fraction, 2% Ac. Acid         70
5     RYRIFI  Percent Eluted by Fraction, 2% Ac. Acid         53

====

Measured Percent Eluted by Fraction, 1M NaCl of individual entries
molecular target: A1PI (Homo sapiens); construct: Human plasma is currently the only approved source of therapeutic AlPI; assay: A1PI purification from 5 mg hSA + 1 mg A1PI on peptide column, A1PI mass balance; format: binding; conditions: A1PI; 5 mg hSA + 1 mg A1PI, 4° C.; relative to total eluted
Ends that are not written are not given here.
metric: Percent Eluted by Fraction, 1M NaCl (%)

> print(dat)
   substance                               metric  datavalue
1     VIWLVR  Percent Eluted by Fraction, 1M NaCl         26
2     YKFRFW  Percent Eluted by Fraction, 1M NaCl         36
3     RYRIFI  Percent Eluted by Fraction, 1M NaCl         28

====

Each record here notes measured Percent Eluted by Fraction, 2% Acetic Acid.
System: Immunoglobulin G (IgG)
Experiment: Purification from Effluent II+III, IgG mass balance
Assay type: binding, human
Details: 1 ml Eff. II+III, 4° C.
Method: Sequences 1-11 and 15 were assayed with Effluent II+III (Eff. II+III). Eff. II+III is a process intermediate in the Cohn plasma fractionation process. The feed stream contains 20% (by volume) ethanol, 20-25 mg/ml hSA and approximately 1 mg/ml AlPI. […]
Ends that are not written are not given here.
metric: Percent Eluted by Fraction, 2% Acetic Acid (%)

> print(dat)
   substance  datavalue
1     RAFWYI          0
2     ARWYIH          7
3     QYHFWY          0
4     VIWLVR          0
5     RFIYYT          7
6     LIVHRW          0
7     RYRIFI          0
8     IIWLYK          0
